Entries with reported IC50 on Neuraminidase (Influenza A virus (A/Puerto Rico/8/1934(H1N1)), UniProt P03468)
Sequence (P03468 whole entry): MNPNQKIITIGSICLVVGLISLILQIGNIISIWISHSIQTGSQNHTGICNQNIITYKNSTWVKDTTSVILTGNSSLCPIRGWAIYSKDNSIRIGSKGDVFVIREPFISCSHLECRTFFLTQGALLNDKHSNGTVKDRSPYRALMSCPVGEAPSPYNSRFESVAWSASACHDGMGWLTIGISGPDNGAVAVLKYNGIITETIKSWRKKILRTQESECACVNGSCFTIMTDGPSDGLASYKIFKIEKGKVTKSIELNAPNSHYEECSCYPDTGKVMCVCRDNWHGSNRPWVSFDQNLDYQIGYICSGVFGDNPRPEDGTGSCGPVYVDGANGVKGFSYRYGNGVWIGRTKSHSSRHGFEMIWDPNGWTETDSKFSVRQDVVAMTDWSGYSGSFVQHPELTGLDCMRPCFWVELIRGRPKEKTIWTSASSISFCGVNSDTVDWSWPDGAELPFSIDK
measured-parameter: IC50

1. CC(=O)N[C@@H]1[C@@H](NC(=O)OC(C)(C)C)C=C(C(=O)OC(c2ccccc2)c2ccccc2)O[C@H]1c1nnc(Cc2ccccc2)[nH]1
87 µM
2. CCCn1nc([C@@H]2OC(C(=O)OC(c3ccccc3)c3ccccc3)=C[C@H](NC(=O)OC(C)(C)C)[C@H]2NC(C)=O)nc1Cc1ccccc1
12 µM
3. CC(=O)N[C@@H]1[C@@H](N)C=C(C(=O)O)O[C@H]1c1nc(Cc2ccccc2)no1
99 µM
4. CCCn1nc(Cc2ccccc2)nc1[C@@H]1OC(C(=O)OC(c2ccccc2)c2ccccc2)=C[C@H](NC(=O)OC(C)(C)C)[C@H]1NC(C)=O
0.07 µM
5. CC(=O)N[C@@H]1[C@@H](N)C=C(C(=O)O)O[C@H]1c1nc(C)no1
23 µM
6. CC(=O)N[C@@H]1[C@@H](N)C=C(C(=O)O)O[C@H]1c1nc(-c2ccccc2)no1
14 µM
7. CCCCc1noc([C@@H]2OC(C(=O)O)=C[C@H](N)[C@H]2NC(C)=O)n1
56 µM
8. CCCCc1nnc([C@@H]2OC(C(=O)O)=C[C@H](N)[C@H]2NC(C)=O)n1CCC
0.33 µM
